Please go through the items and note down their protein stability index.
B1: ZNF449 (parent)
chain: EPHKCPECGKRFLRSSDLYRHQRL

variants of: B1; assay: protein stability index of a GFP-peptide fusion (GPS, HEK-293T) (PSI 1-6); higher = more stable; conditions: c terminus: a fixed tail appended;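 also: lentivirally expressed fusions sorted by FACS into six bins by GFP to DsRed ratio, PSI derived from sequencing read proportions per bin multiplied by bin number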
Please give only the number in your answer, with no unit.

Exercise: Fill in the blank: the reported protein stability index of EPHKCPECGKRFLRSSDLYRHQIL [R23I] is ____.
Solution: 3.01

Exercise: Fill in the blank: the reported protein stability index of EPSKCPECGKRFLRSSDLYRHQRL [H3S] is ____.
Solution: 2.97

Exercise: Fill in the blank: the reported protein stability index of EPHKCPELGKRFLRSSDLYRHQRL [C8L] is ____.
Solution: 3.01

Exercise: Fill in the blank: the reported protein stability index of EPHKCPECGKRFLRSSDEYRHQRL [L18E] is ____.
Solution: 2.92
